- Tested system: pooled human IgG (human IgG1,2,3 and 4)
Value type: Enzyme Activity Endpoint Assay (purified): IgG (ng/µL)

protein="PRT-337 (protein) MTITSVWTKGVTPPTPEDFRKNNEDVLHAPYLANQGWYDITKAFDGKDNLLCGAATAGNMLHWWFDQNKEEIERYLKKHPEKQKIIFNNQELFDVKAAIDTKDSQTNSKLFNYFRDKAFPNLSARQLGVMPDLVLDMFINGYYLNLGKTQSTDVNRPYQDKDKRGGIFDAVFTRGDQTTLLTARHDLKNKGLNEISDLIKQELTEGKALALSHTYANVSINHVINLWGADFDAEGNLEAIYVTDSDANASIGMKKYFVGRNAHGKVAISAKKIEGDNIGAQVLGLFTLSTGQDIWQKLS" unit=ng/µL measured=38
protein="PRT-459 (protein) MVTSVWTKGVTPPTDFIKGEDVFHAPYKAGQGWYDITKAFDGGDDLLCGAATAGNMLHWWFDQNKDQIERYLKEHPEKQKINFNGEQMFDVKEAIDTKDSQTNSELFNYFKEKAFPYLSTKHLGVFPDHVLDMFINGYRLSLTNHGPTPVKEGSKDPRGGIFDAVFTRGDQSKLLTSRHDFKEKTLKEISDLIKQELTEGKALGLSHTYANVRINHVINLWGADFDSEGNLKAIYVTDSDSNASIGMKKYFVGVNSAGKVAISAKEIKEDNIGAQVLGLFTLSTGQDIWNQTNLEHHHHHH" unit=ng/µL measured=373

Measured values drawn from patent US20250027068 for this set.
